The values you see were collected from patent US7713994B2.

TARGET_ENTITY: cyclin B/CDK1 enzyme (Homo sapiens, UniProt P06493)
Construct: purchased New England BioLabs; host or cells: Sf9 insect cells, recombinant baculovirus
Sequence (P06493 whole entry): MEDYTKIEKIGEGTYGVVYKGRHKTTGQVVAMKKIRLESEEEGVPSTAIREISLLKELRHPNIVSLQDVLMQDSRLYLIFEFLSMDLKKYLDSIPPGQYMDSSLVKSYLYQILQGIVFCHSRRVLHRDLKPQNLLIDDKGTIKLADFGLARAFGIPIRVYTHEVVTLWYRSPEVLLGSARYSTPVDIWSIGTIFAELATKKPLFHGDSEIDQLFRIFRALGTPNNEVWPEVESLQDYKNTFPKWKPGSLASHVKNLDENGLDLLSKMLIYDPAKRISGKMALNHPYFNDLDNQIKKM
Sequence (P14635 whole entry partner): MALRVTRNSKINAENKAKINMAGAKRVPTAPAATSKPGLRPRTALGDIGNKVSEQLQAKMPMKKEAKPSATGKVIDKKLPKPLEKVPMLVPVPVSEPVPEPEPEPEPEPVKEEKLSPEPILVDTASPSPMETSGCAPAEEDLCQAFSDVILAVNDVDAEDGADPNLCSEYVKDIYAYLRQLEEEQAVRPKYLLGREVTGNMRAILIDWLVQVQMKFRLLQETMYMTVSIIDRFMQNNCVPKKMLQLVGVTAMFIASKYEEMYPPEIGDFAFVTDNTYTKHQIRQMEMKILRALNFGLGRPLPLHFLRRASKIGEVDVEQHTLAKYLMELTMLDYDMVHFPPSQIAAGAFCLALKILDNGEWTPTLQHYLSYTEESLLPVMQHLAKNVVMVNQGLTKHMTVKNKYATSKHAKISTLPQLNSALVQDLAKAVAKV
MEASUREMENT_PROTOCOL: CDK1 ELISA kinase assay (phospho-Rb ser 795 detection)
Assay type: biochemical
EXPERIMENTAL_SETUP: In Vitro Enzyme Assay, read-out: CDK1 IC50
Collected IC50 values appear next to each entry.

Consider the reported IC50 for these compounds:
compound="CC1(C)Oc2cc(CN/C=C3\\C(=O)NC(=O)c4ccc(Br)cc43)cc(OC(=O)C3CC3)c2O1 [Example 873]" recorded_endpoint=IC50 recorded_measurement="1.9 µM"
compound="CN(C)CCOc1ccc(N/C=C2\\C(=O)NC(=O)c3ccc(Br)cc32)cc1 [Example 867]" recorded_endpoint=IC50 recorded_measurement="> 50 µM"

QUERY: Answer with the recorded IC50 for the compound listed here: CN1CCC(Oc2ccc(N/C=C3\C(=O)NC(=O)c4ccc(Br)cc43)cc2)C1 (stereo not shown) [Example 877]
RESULT: > 50 µM

QUERY: Answer with the recorded IC50 for the compound listed here: CN1CCN(CCN(C)c2ccc(NC=C3C(=O)NC(=O)c4ccc(Br)cc43)cc2)CC1 (stereo in doubt) [Example 870]
RESULT: > 50 µM

QUERY: Answer with the recorded IC50 for the compound listed here: CN(C)CCCc1ccc(N/C=C2\C(=O)NC(=O)c3ccc(Br)cc32)cc1 [Example 874]
RESULT: > 50 µM

QUERY: Answer with the recorded IC50 for the compound listed here: CN(C)CCCN(C)c1ccc(N/C=C2\C(=O)NC(=O)c3ccc(Br)cc32)cc1 [Example 876]
RESULT: > 50 µM

QUERY: Answer with the recorded IC50 for the compound listed here: CN1Cc2ccc(N/C=C3\C(=O)NC(=O)c4ccc(Br)cc43)cc2C1 [Example 868]
RESULT: 20.7 µM
